# Test system: Calf thymus DNA
# assay.info: Binding affinity to calf thymus DNA assessed as change in melting temperature by UV thermal denaturation assay
# Type: nucleic-acid assay
# assay.setup: Bos taurus
readout.kind: ΔTm (°C)

{"query.smiles": "CC1=CC(=[N+](C)C)C=CC1=C(c1ccc(N(C)C)cc1C)c1ccc(N(C)C)cc1C", "unit.abbreviation": "°C", "ΔTm": 2.6}

(a) CN(C)c1ccc(C(=C2C=CC(=[N+](C)C)C(c3ccccc3)=C2)c2ccc(N(C)C)c(-c3ccccc3)c2)cc1-c1ccccc1
(b) CN(C)c1ccc(C(=C2C=CC(=[N+](C)C)C=C2)c2ccc3cc(N(C)C)ccc3c2)cc1
Q. ΔTm comparison. Which is larger, a or b ? Your choice should be expressed through its label.
A. b
(b: 4.6 °C, a: 2.2 °C)

(1) CN(C)c1ccc(C(=C2C=CC(=[N+](C)C)C=C2)c2ccc(-c3cc4c(cc3-c3ccc(C(=C5C=CC(=[N+](C)C)C=C5)c5ccc(N(C)C)cc5)cc3)OCO4)cc2)cc1
(2) CN(C)c1ccc(C(=C2C=CC(=[N+](C)C)C=C2)c2ccc(N(C)C)c(-c3ccccc3)c2)cc1-c1ccccc1
Q. Given the two records 1 and 2 , choose the one whose ΔTm value is lower. Your choice should be expressed through its label.
A. 2

(P) Cc1cc(N(C)C)cc(C)c1C(=C1C=CC(=[N+](C)C)C=C1)c1ccc(N(C)C)cc1
(Q) CN(C)c1ccc(C(=C2C=CC(=[N+](C)C)C=C2)c2ccc(N(C)C)c(-c3ccccc3)c2)cc1
Q. ΔTm comparison. Which is larger, P or Q ? Your choice should be expressed through its label.
A. Q
(Q: 6.2 °C, P: 2.8 °C)

Each recorded value in this set is attributed to ChEMBL document CHEMBL5365533.
